# Tested on: SF-295
# Assay Remarks: NCI tumour cell line growth inhibition, 48 h
Active and inactive are the calls of the source. Rule as the data show it: active = GI50 up to about 1.1 µM and inactive = higher.
Value Type: GI50

Please review the entries below; each comes with its answer.
{"Compound": "CCc1nnc(CC)n1-n1c(Cc2ccccc2)n[nH]c1=O", "GI50": "> 100 µM (inactive)"}
{"Compound": "Cc1occc(=O)c1O [MALTOL]", "GI50": "> 100 µM (inactive)"}

Query :: Form entry - test system: SF-295; read-out: GI50; compound: O=C(O)CCS/C(=C\C(SCCC(=O)O)c1ccc(Cl)cc1)c1ccc(Cl)cc1 (stereo unspecified)
Result :: 33.4 µM (inactive)

Query :: Form entry - test system: SF-295; read-out: GI50; compound: "O=c1cc(N2CCOCC2)[nH]c(=O)n1-c1ccc(F)cc1"
Result :: > 100 µM (inactive)

Query :: Form entry - test system: SF-295; read-out: GI50; compound: COc1ccc(N2C(=O)C3c4[nH]c5ccccc5c4C4CCCCCCC4C3C2=O)cc1 (stereo unspecified)
Result :: 11.6 µM (inactive)

Query :: Form entry - test system: SF-295; read-out: GI50; compound: "COC(=O)c1c[nH]cc1CCCCc1c[nH]cc1C(=O)OC"
Result :: 73.3 µM (inactive)

---

List of GI50 values.
# Test system: SF-539
# Assay Remarks: NCI tumour cell line growth inhibition, 48 h
Active and inactive are the calls of the source. Rule as the data show it: active = GI50 up to about 1.1 µM and inactive = higher.

Please review the entries below; each comes with its answer.
{"Compound": "COC(=O)C(CC(=O)c1cc2c(cc1I)OCO2)Cc1cc(OC)c(OC)c(OC)c1I (stereo unspecified)", "Target Or Test System": "SF-539", "GI50": "> 100 µM (inactive)"}
{"Compound": "O=C1Oc2cc(O)cc(/C=C/c3ccc(O)cc3)c2[C@@]12c1c(O)cc(O)cc1OC2c1cccc(O)c1 (stereo partly specified)", "Target Or Test System": "SF-539", "GI50": "31.8 µM (inactive)"}
{"Compound": "CCOP(=O)(C=C=C(C)C)OCC", "Target Or Test System": "SF-539", "GI50": "> 100 µM (inactive)"}
{"Compound": "O=C(O)CCS/C(=C\\C(SCCC(=O)O)c1ccc(Cl)cc1)c1ccc(Cl)cc1 (stereo unspecified)", "Target Or Test System": "SF-539", "GI50": "37.2 µM (inactive)"}
{"Compound": "Cc1cccc(NC(=O)Cc2nc3ccccc3s2)c1C", "Target Or Test System": "SF-539", "GI50": "> 100 µM (inactive)"}

Query :: Recorded GI50 of COc1cc(CC(C)N)ccc1O (stereo unspecified) , please.
Result :: > 100 µM (inactive)

---

# Test system: KM12
# Assay Remarks: NCI tumour cell line growth inhibition, 48 h
The source made the active and inactive calls. Rule as the data show it: active = GI50 up to about 1.1 µM and inactive = higher.
Parameter call: string, one of 1.0 (active), 0.0 (inactive)

Known results for compounds:
{"Compound": "N#Cc1cc(N(CCCl)CCCl)c([N+](=O)[O-])cc1[N+](=O)[O-]", "Target Or Test System": "KM12", "Answer Label": 0.0}
{"Compound": "Nc1nc(Cl)c(/C=N\\O)c(NCC2(CO)CC(=O)C2)n1", "Target Or Test System": "KM12", "Answer Label": 0.0}
{"Compound": "CO[C@@H]1/C=C\\C=C(/C)C(=O)NC2=CC(=O)C(NCCN(C)C)=C(C[C@@H](C)C[C@@H](OC)[C@@H](O)[C@H](C)/C=C(\\C)[C@H]1OC(N)=O)C2=O", "Target Or Test System": "KM12", "Answer Label": 1.0}
{"Compound": "Cc1nc(O)nc2c1C(NCCCN(C)C)c1cc(Cl)ccc1N2 (stereo not given)", "Target Or Test System": "KM12", "Answer Label": 0.0}
{"Compound": "COc1ccc(CC2(Cc3ccc(OC)cc3)CCOC2=O)cc1", "Target Or Test System": "KM12", "Answer Label": 0.0}
{"Compound": "CCOC(=O)n1ccc2c(C(=O)OC)c(C(=O)OC)cc(/C(=C/C(=O)OC)C(=O)OC)c21", "Target Or Test System": "KM12", "Answer Label": 0.0}

Query :: Would you mind telling me which call this test gave "C/C(=N\Nc1nc2ccccc2[nH]1)c1ccncn1" ?
Result :: 1.0

Query :: Would you mind telling me which call this test gave "O=Nn1c2ccccc2c2ccccc21" ?
Result :: 0.0

Query :: Would you mind telling me which call this test gave COc1ccc(N2C(=O)C3c4[nH]c5ccccc5c4C4CCCCCCC4C3C2=O)cc1 (stereo not given) ?
Result :: 0.0

Query :: Would you mind telling me which call this test gave c1ccc(C2Nc3ccccc3C3OCCCC23)cc1 (stereo not given) ?
Result :: 0.0
